target: PIK3R3(SH2dom.N-term.) (Homo sapiens, UniProt Q92569); construct: SH2dom.N-term. denotes SH2 domain closest to N-terminus of protein; made in house; host or cells: HEK293 (transient transfection, unpurified extract); test: biochemical; type: binding; details: primary screen, 10 μM; read-out: percent of DMSO vehicle control
Give measured remaining activity at 10 µM for each item. Keep answers brief.
Give bare numbers, in %.

Some compounds with recorded remaining activity at 10 µM:
>>> print(df.to_string())
                             chemicalstring                               assaytarget                   metricname  readoutvalue
0  CC(C)(C)[C@H](NC(=O)/C=C/c1ccc(OP(=O)(O)O)cc1)C(=O)N1CCC[C@H]1C(=O)N(c1ccccc1)c1ccc(I)cc1  PIK3R3(SH2dom.N-term.) (Homo sapiens, UniProt Q92569)  remaining activity at 10 µM          85.8
1  C/C(=C\C(=O)N[C@H](C(=O)N1CCC[C@H]1C(=O)N(c1ccccc1)c1ccc(I)cc1)C(C)(C)C)c1ccc(OP(=O)(O)O)cc1  PIK3R3(SH2dom.N-term.) (Homo sapiens, UniProt Q92569)  remaining activity at 10 µM          48.3
2  O=C(COc1ccc2cc(C(=O)Nc3ccccc3)ccc2c1)NCc1ccc(OP(=O)(O)O)c(OP(=O)(O)O)c1  PIK3R3(SH2dom.N-term.) (Homo sapiens, UniProt Q92569)  remaining activity at 10 µM           105

Here's the next entry for you.
IN: Report remaining activity at 10 µM for O=C(CCl)Nc1cccc(CNC(=O)[C@H](Cc2ccc(OP(=O)(O)O)cc2)NC(=O)Cc2ccc(F)cc2)c1
OUT: 97.7

* * *

molecular target: SOCS7 (Homo sapiens); construct: made in house; host or cells: HEK293 (transient transfection), unpurified extract; assay: biochemical; assay type: binding; conditions: primary screen, 10 μM; read-out: percent of DMSO vehicle control
Sequence (O14512 whole entry): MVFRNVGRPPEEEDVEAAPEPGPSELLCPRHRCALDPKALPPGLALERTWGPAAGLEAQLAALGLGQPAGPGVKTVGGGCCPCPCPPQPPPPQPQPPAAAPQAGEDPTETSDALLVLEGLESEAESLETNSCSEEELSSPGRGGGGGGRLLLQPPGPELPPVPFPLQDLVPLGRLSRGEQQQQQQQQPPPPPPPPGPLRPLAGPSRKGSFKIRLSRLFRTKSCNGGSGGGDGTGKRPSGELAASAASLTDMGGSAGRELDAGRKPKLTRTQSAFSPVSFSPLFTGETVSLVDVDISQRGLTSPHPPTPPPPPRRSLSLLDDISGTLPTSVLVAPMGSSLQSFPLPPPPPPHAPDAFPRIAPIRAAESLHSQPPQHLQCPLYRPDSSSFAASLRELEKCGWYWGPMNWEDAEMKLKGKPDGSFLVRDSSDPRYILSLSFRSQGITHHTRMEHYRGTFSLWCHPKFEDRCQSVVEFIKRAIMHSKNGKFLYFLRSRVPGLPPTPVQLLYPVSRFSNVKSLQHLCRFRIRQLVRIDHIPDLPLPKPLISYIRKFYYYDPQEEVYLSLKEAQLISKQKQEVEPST
metricName: remaining activity at 10 µM (%)
One number for each entry, in %.

Some molecules with recorded remaining activity at 10 µM:
In [3]: df
Out[3]:
                             chemicalstring                   metricname  readoutvalue
0  CC(C)(C)[C@H](NC(=O)/C=C/c1ccc(OP(=O)(O)O)cc1)C(=O)N1CCC[C@H]1C(=O)N(c1ccccc1)c1ccc(I)cc1  remaining activity at 10 µM          50.9
1  O=C(COc1ccc2cc(C(=O)Nc3ccccc3)ccc2c1)NCc1ccc(OP(=O)(O)O)c(OP(=O)(O)O)c1  remaining activity at 10 µM            81
2  C/C(=C\C(=O)N[C@H](C(=O)N1CCC[C@H]1C(=O)N(c1ccccc1)c1ccc(I)cc1)C(C)(C)C)c1ccc(OP(=O)(O)O)cc1  remaining activity at 10 µM          34.6

Here's the next entry for you.
IN: Report remaining activity at 10 µM for O=C(CCl)Nc1cccc(CNC(=O)[C@H](Cc2ccc(OP(=O)(O)O)cc2)NC(=O)Cc2ccc(F)cc2)c1
OUT: 21.9

* * *

target: STAT3(E616del)-nonphosphorylated (Homo sapiens, UniProt P40763, DEL616-616); construct: made in house; host or cells: HEK293 (transient transfection), unpurified extract, dephosphorylated by endogenous phosphatases; experiment: biochemical; assay type: binding; conditions: primary screen, 10 μM; read-out: percent of DMSO vehicle control
Sequence (P40763 with tags, fused parts or gaps DEL616-616): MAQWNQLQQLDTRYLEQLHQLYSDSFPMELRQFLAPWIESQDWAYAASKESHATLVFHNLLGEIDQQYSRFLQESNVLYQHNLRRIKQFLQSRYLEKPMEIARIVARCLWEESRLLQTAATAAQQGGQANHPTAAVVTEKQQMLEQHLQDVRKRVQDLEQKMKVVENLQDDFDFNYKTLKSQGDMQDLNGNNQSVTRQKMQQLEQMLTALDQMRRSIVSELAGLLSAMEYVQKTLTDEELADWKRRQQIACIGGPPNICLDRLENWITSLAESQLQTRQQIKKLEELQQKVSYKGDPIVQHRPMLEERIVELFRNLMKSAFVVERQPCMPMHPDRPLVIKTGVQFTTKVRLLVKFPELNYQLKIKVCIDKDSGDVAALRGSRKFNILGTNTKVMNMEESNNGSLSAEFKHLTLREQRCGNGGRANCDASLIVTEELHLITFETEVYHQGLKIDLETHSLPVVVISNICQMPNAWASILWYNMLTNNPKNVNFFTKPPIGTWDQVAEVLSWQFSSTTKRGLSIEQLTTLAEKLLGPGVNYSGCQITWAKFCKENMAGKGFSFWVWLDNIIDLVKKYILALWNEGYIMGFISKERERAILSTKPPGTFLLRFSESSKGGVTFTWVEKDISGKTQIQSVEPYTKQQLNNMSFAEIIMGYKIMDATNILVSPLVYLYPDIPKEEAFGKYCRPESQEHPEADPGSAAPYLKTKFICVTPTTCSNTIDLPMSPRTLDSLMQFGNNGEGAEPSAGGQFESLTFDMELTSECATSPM
Give measured remaining activity at 10 µM for each item. Keep answers brief.
Answers are plain numbers, in %.

Each compound below has a reported value. Please supply its remaining activity at 10 µM.
1. C/C(=C\C(=O)N[C@H](C(=O)N1CCC[C@H]1C(=O)N(c1ccccc1)c1ccc(I)cc1)C(C)(C)C)c1ccc(OP(=O)(O)O)cc1 [STAT6-IN-1]
2. O=C(CCl)Nc1cccc(CNC(=O)[C@H](Cc2ccc(OP(=O)(O)O)cc2)NC(=O)Cc2ccc(F)cc2)c1 [MN551]
3. O=C(COc1ccc2cc(C(=O)Nc3ccccc3)ccc2c1)NCc1ccc(OP(=O)(O)O)c(OP(=O)(O)O)c1 [Stafib-1]
4. CC(C)(C)[C@H](NC(=O)/C=C/c1ccc(OP(=O)(O)O)cc1)C(=O)N1CCC[C@H]1C(=O)N(c1ccccc1)c1ccc(I)cc1 [STAT6-IN-3]

OUT:
1: 0; 2: 203; 3: 135; 4: 0.4
